Known half-life of a selection of compounds
assay: Pharmacokinetic assay in Balb/c mice (plasma and brain tissue); type: in vivo; conditions: mouse, po; brain tissue, 5 mg/kg p.o., male Balb/c mice; read-out: Half-life t1/2 (converted)
Value expressed in h; do not type the unit.

{"SAMPLE SMILES": "C[C@@H]1C[C@H](C(=O)Cn2cc(C#N)cn2)[C@@]2(C)CC[C@H]3[C@@H](CC[C@@H]4C[C@](C)(O)CC[C@@H]43)[C@H]12", "PROPERTY LABEL": "half-life", "RESULT NUMBER": 2.5}
{"SAMPLE SMILES": "CC[C@@H]1C[C@H](C(=O)Cn2ccc(C#N)n2)[C@@]2(C)CC[C@H]3[C@@H](CC[C@@H]4C[C@](C)(O)CC[C@@H]43)[C@H]12", "PROPERTY LABEL": "half-life", "RESULT NUMBER": 6.02}

Shift focus to the following entry.
Request the reported half-life associated with C[C@@]1(O)CC[C@H]2[C@H](CC[C@@H]3[C@@H]2CC[C@@]2(C)[C@H]3[C@H](C3CC3)C[C@@H]2C(=O)Cn2ncnn2)C1 4.66

----------
Assay: Pharmacokinetic assay in Balb/c mice (plasma and brain tissue)
Format: in vivo
Conditions: mouse, po; plasma, 5 mg/kg p.o., male Balb/c mice; read-out: Plasma concentration Cmax
Procedure: Balb/c mice were used as test animals. The pharmacokinetic behavior in mice (plasma and brain tissue) of the compounds of Examples 2, 3, 5, 6, 9, 13, 59, 60, 61, 63, 71-74, 81, 103, 130, 134, 135, 137, 138, 140, 141, 143, 145 and 146 orally administered at a dose of 5 mg/kg was studied. Each group had 24 male Balb/c mice. […] The main parameters of pharmacokinetics were calculated by WinNonlin 6.1.
Known Cmax of a selection of molecules
Value expressed in ng/mL; do not type the unit.

Request the reported Cmax associated with CC[C@@H]1C[C@H](C(=O)Cn2nccn2)[C@@]2(C)CC[C@H]3[C@@H](CC[C@@H]4C[C@](C)(O)CC[C@@H]43)[C@H]12 1630

----------
Known AUC(0-t) of a selection of compounds
assay: Pharmacokinetic assay in Balb/c mice (plasma and brain tissue); format: in vivo; details: mouse, po; brain tissue, 5 mg/kg p.o., male Balb/c mice; read-out: Area under curve AUC0-t
Value expressed in ng·h/mL; do not type the unit.

// solved cases for AUC(0-t) follow
{"COMPOUND": "C[C@@]1(O)CC[C@H]2[C@H](CC[C@@H]3[C@@H]2CC[C@@]2(C)[C@H]3[C@H](C3CC3)C[C@@H]2C(=O)Cn2nc(C#N)cc2C#N)C1", "AUC(0-t) [ng·h/mL]": 8820}
{"COMPOUND": "CC[C@@H]1C[C@H](C(=O)Cn2ccc(C(F)(F)F)n2)[C@@]2(C)CC[C@H]3[C@@H](CC[C@@H]4C[C@](C)(O)CC[C@@H]43)[C@H]12", "AUC(0-t) [ng·h/mL]": 773}
{"COMPOUND": "C[C@@H]1C[C@H](C(=O)Cn2cc(C#N)c(Cl)n2)[C@@]2(C)CC[C@H]3[C@@H](CC[C@@H]4C[C@](C)(O)CC[C@@H]43)[C@H]12", "AUC(0-t) [ng·h/mL]": 3210}

Request the reported AUC(0-t) associated with C[C@@H]1C[C@H](C(=O)Cn2cc(C(F)(F)F)cn2)[C@@]2(C)CC[C@H]3[C@@H](CC[C@@H]4C[C@](C)(O)CC[C@@H]43)[C@H]12 2640

Consider next the compound C[C@@]1(O)CC[C@H]2[C@H](CC[C@@H]3[C@@H]2CC[C@]2(C)C(C(=O)Cn4cc(C#N)cn4)C[C@@H](C4CC4)[C@@H]32)C1 (stereo partly drawn) in the same way. 1130

----------
Known AUC(0-inf) of a selection of molecules
test: Pharmacokinetic assay in Balb/c mice (plasma and brain tissue); format: in vivo; settings: mouse, po; brain tissue, 5 mg/kg p.o., male Balb/c mice; read-out: Area under curve AUC0-∞
Value expressed in ng·h/mL; do not type the unit.

// solved cases for AUC(0-inf) follow
{"MOLECULE": "C[C@@H]1C[C@H](C(=O)Cn2nccn2)[C@@]2(C)CC[C@H]3[C@@H](CC[C@@H]4C[C@](C)(O)CC[C@@H]43)[C@H]12 [Example 61]", "RESULT NUMBER": 676}
{"MOLECULE": "C[C@@]1(O)CC[C@H]2[C@H](CC[C@@H]3[C@@H]2CC[C@@]2(C)[C@H]3[C@@H]3C[C@@H]3[C@@H]2C(=O)Cn2cc([N+](=O)[O-])cn2)C1 [Example 103]", "RESULT NUMBER": 1710}
{"MOLECULE": "C[C@@]1(O)CC[C@H]2[C@H](CC[C@@H]3[C@@H]2CC[C@@]2(C)[C@H]3[C@H](C3CC3)C[C@@H]2C(=O)Cn2ccc(C#N)n2)C1 [Example 72]", "RESULT NUMBER": 2240}

Request the reported AUC(0-inf) associated with C[C@@]1(O)CC[C@H]2[C@H](CC[C@@H]3[C@@H]2CC[C@@]2(C)[C@H]3[C@@H]3C[C@@H]3[C@@H]2C(=O)COc2cnc(C(F)(F)F)nc2)C1 [Example 130] 2630

Consider next the molecule Cc1nnn(CC(=O)[C@H]2C[C@@H](C3CC3)[C@H]3[C@@H]4CC[C@@H]5C[C@](C)(O)CC[C@@H]5[C@H]4CC[C@@]32C)n1 [Example 74] in the same way. 6510

----------
test: Pharmacokinetic assay in Balb/c mice (plasma and brain tissue); type: in vivo; conditions: mouse, po; brain tissue, 5 mg/kg p.o., male Balb/c mice; read-out: Mean residence time MRT
Quick rule: MRT of at least 2 h means MET, below that means NOT MET.

Please review the entries below; each comes with its answer.
{"SAMPLE SMILES": "C[C@@H]1C[C@H](C(=O)Cn2ncnn2)[C@@]2(C)CC[C@H]3[C@@H](CC[C@@H]4C[C@](C)(O)CC[C@@H]43)[C@H]12", "DISCRETE LABEL": "NOT MET"}
{"SAMPLE SMILES": "CC[C@@H]1C[C@H](C(=O)Cn2ccc(C(F)(F)F)n2)[C@@]2(C)CC[C@H]3[C@@H](CC[C@@H]4C[C@](C)(O)CC[C@@H]43)[C@H]12", "DISCRETE LABEL": "MET"}
{"SAMPLE SMILES": "C[C@@]1(O)CC[C@H]2[C@H](CC[C@@H]3[C@@H]2CC[C@@]2(C)[C@H]3[C@H](C3CC3)C[C@@H]2C(=O)Cn2ccc(C#N)n2)C1", "DISCRETE LABEL": "MET"}
{"SAMPLE SMILES": "C[C@@H]1C[C@H](C(=O)Cn2cc(C#N)c(Cl)n2)[C@@]2(C)CC[C@H]3[C@@H](CC[C@@H]4C[C@](C)(O)CC[C@@H]43)[C@H]12", "DISCRETE LABEL": "MET"}

Proceed to the following item.
Assess whether reported MRT for CC[C@@H]1C[C@H](C(=O)Cn2nccn2)[C@@]2(C)CC[C@H]3[C@@H](CC[C@@H]4C[C@](C)(O)CC[C@@H]43)[C@H]12 sits at 2 h or higher. MET

----------
tested on: PTZ-induced epilepsy model in CD-1 mice; assay: In vivo pharmacodynamic test in the PTZ-induced epilepsy model in mice; details: dose 3 mpk p.o., PTZ 120 mg/kg s.c., 30 min observation
Known Time when the animal died, Mean of a selection of compounds

// solved cases for Time when the animal died, Mean follow
{"SAMPLE SMILES": "Cc1nnn(CC(=O)[C@H]2C[C@@H](C3CC3)[C@H]3[C@@H]4CC[C@@H]5C[C@](C)(O)CC[C@@H]5[C@H]4CC[C@@]32C)n1", "Time when the animal died, Mean": "1618.1 ± 121.3 s"}
{"SAMPLE SMILES": "C[C@@]1(O)CC[C@H]2[C@H](CC[C@@H]3[C@@H]2CC[C@@]2(C)[C@H]3[C@@H]3C[C@@H]3[C@@H]2C(=O)Cn2ccc(C#N)n2)C1", "Time when the animal died, Mean": "1739.8 ± 60.2 s"}
{"SAMPLE SMILES": "C[C@@H]1C[C@H](C(=O)Cn2nccn2)[C@@]2(C)CC[C@H]3[C@@H](CC[C@@H]4C[C@](C)(O)CC[C@@H]43)[C@H]12", "Time when the animal died, Mean": "1573.1 ± 117.9 s"}

Request the reported Time when the animal died, Mean associated with C[C@@H]1C[C@H](C(=O)Cn2ccc(C#N)n2)[C@@]2(C)CC[C@H]3[C@@H](CC[C@@H]4C[C@](C)(O)CC[C@@H]43)[C@H]12 1800.0 ± 0.0 s

----------
Known Tmax of a selection of compounds
Assay: Pharmacokinetic assay in Balb/c mice (plasma and brain tissue)
Type: in vivo
Settings: mouse, po; plasma, 5 mg/kg p.o., male Balb/c mice; read-out: Peak time tmax
Method: Balb/c mice were used as test animals. The pharmacokinetic behavior in mice (plasma and brain tissue) of the compounds of Examples 2, 3, 5, 6, 9, 13, 59, 60, 61, 63, 71-74, 81, 103, 130, 134, 135, 137, 138, 140, 141, 143, 145 and 146 orally administered at a dose of 5 mg/kg was studied. Each group had 24 male Balb/c mice. […] The main parameters of pharmacokinetics were calculated by WinNonlin 6.1.
Value expressed in min; do not type the unit.

{"COMPOUND": "C[C@@H]1C[C@H](C(=O)Cn2ncnn2)[C@@]2(C)CC[C@H]3[C@@H](CC[C@@H]4C[C@](C)(O)CC[C@@H]43)[C@H]12 [Example 63]", "Tmax (min)": 30}
{"COMPOUND": "C[C@@]1(O)CC[C@H]2[C@H](CC[C@@H]3[C@@H]2CC[C@@]2(C)[C@H]3[C@@H]3C[C@@H]3[C@@H]2C(=O)COc2cnc(C(F)(F)F)nc2)C1 [Example 130]", "Tmax (min)": 30}

Shift focus to the following entry.
Request the reported Tmax associated with C[C@@H]1C[C@H](C(=O)Cn2ccc(C#N)n2)[C@@]2(C)CC[C@H]3[C@@H](CC[C@@H]4C[C@](C)(O)CC[C@@H]43)[C@H]12 [Example 60] 30
